# measurement target: T1, recombinant MBP-EDIII of DENV3 (Dengue virus 3, strain …, UniProt P27915, strain)
# T1 construct: also called DENV3 EDIII; envelope protein domain III of DENV3; not shown: MBP, N-terminal, kept
# measurement protocol: SPR
# condition summary: both partners purified
Reported koff values follow for various binders
Record the value in s⁻¹, omitting the unit from your answer.

Example entries begin here.
binder: 1A1D-2 Fab Y105R.H (Fab, V domains shown) VH: EVQLQQSGAELVKPGASVKLSCTASGFNIKDTYMHWVKQRPEQGLEWIGRIDPANGYSKYDPKFQGKATITADTSSNAAYLQLSSLTSEDTAVYFCARDYEGFARWGQGTLVTVSS VL: DIVLTQSPASLAVSLGQRATISCRASESVVRYGNSFMHWYQQKPGQPPKLLIYRASSLESGIPTRFSGSGSRTDFTLTINPVEADDVATYYCQQTNVDPWAFGGGTKLEIK
koff [s⁻¹]: 0.00419
--
binder: 1A1D-2 Fab A54E.H (Fab, V domains shown) VH: EVQLQQSGAELVKPGASVKLSCTASGFNIKDTYMHWVKQRPEQGLEWIGRIDPENGYSKYDPKFQGKATITADTSSNAAYLQLSSLTSEDTAVYFCARDYEGFAYWGQGTLVTVSS VL: DIVLTQSPASLAVSLGQRATISCRASESVVRYGNSFMHWYQQKPGQPPKLLIYRASSLESGIPTRFSGSGSRTDFTLTINPVEADDVATYYCQQTNVDPWAFGGGTKLEIK
koff [s⁻¹]: 0.00364
--
binder: 1A1D-2 Fab WT (Fab, V domains shown, also called 1A1D-2 WT) VH: EVQLQQSGAELVKPGASVKLSCTASGFNIKDTYMHWVKQRPEQGLEWIGRIDPANGYSKYDPKFQGKATITADTSSNAAYLQLSSLTSEDTAVYFCARDYEGFAYWGQGTLVTVSS VL: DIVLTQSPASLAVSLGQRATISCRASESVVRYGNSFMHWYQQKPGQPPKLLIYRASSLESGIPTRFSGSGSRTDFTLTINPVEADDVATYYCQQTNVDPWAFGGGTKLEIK
koff [s⁻¹]: 0.00792

## Input Please give the measured koff for this binder: 1A1D-2 Fab A54E-Y105R double mutant (Fab, V domains shown) VH: EVQLQQSGAELVKPGASVKLSCTASGFNIKDTYMHWVKQRPEQGLEWIGRIDPENGYSKYDPKFQGKATITADTSSNAAYLQLSSLTSEDTAVYFCARDYEGFARWGQGTLVTVSS VL: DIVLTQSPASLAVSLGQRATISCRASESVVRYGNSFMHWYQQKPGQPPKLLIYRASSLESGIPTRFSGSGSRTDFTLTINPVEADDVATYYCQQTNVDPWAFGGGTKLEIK
## Output 0.00158
